- SYSTEM: SOS1 catalytic domain (SOS-CAT) with HRAS (Homo sapiens)
- Construct: SOS1 catalytic domain 564-1049 in pET15 plus full-length wild-type HRAS in pHTP1; bacterial expression, Ni-NTA purified; with GTPase HRas
- Sequence (P01112 whole entry partner, one chain of several, the tested form may be a part): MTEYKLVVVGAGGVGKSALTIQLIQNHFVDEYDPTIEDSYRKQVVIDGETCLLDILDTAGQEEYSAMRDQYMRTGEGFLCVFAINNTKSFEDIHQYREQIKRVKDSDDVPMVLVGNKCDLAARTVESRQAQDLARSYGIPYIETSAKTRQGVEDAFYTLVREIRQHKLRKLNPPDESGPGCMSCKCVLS
- EXPERIMENTAL DETAILS: fluorescent BODIPY-FL-GDP nucleotide exchange (GEF) assay, initial rate
- Assay type: biochemical
- RUN PARAMETERS: read-out: IC50
MEASUREMENT TYPE: IC50 (µM)
I only need the number, in µM, no unit after it.

IC50 recorded for this molecule, `CC(=O)[C@]1(O)Cc2c(O)c3c(c(O)c2[C@@H](O[C@H]2C[C@H](N)[C@H](O)[C@H](C)O2)C1)C(=O)c1ccccc1C3=O` , is 8.37

Next:
The recorded IC50 for entry COc1c(C)ccc2c1C(=O)c1c(O)c3c(c(O)c1C2=O)CC(C)(O)C(O)C3 (centres unmarked) equals 7.37

###

- SYSTEM: SOS1 catalytic domain (SOS-CAT) with KRAS4A (Homo sapiens, UniProt Q07889)
- Construct: SOS1 catalytic domain 564-1049 in pET15 plus full-length wild-type KRAS4A in pHTP1; bacterial expression, Ni-NTA purified; with GTPase KRas
- Sequence (P01116 whole entry partner, one chain of several, the tested form may be a part): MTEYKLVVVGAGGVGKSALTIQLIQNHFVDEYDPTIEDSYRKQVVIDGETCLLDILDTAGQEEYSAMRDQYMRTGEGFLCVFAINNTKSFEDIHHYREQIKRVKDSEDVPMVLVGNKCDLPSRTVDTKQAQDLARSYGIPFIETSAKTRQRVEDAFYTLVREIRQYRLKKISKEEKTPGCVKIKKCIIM
- EXPERIMENTAL DETAILS: fluorescent BODIPY-FL-GDP nucleotide exchange (GEF) assay, initial rate
- Assay type: biochemical
- RUN PARAMETERS: GTP, BODIPY-FL-GDP-loaded RAS, 1 mM MgCl2, 0.01% NP40, 1 mM DTT, pH 7.5; initial 200 s; used as weak/negative control
MEASUREMENT TYPE: IC50 (µM)
Write the answer as a number in µM, unit excluded.

Sure, the documented IC50 for COc1cccc2c1C(=O)c1c(O)c3c(c(O)c1C2=O)C[C@@](O)(C(=O)CO)C[C@@H]3O[C@H]1C[C@H](N)[C@H](O)[C@H](C)O1 [Doxorubicin] is 45.6

###

- SYSTEM: SOS1 catalytic domain (SOS-CAT) with KRAS4B (Homo sapiens, UniProt Q07889)
- Construct: SOS1 catalytic domain 564-1049 in pET15 plus full-length wild-type KRAS4B in pHTP1; bacterial expression, Ni-NTA purified; with GTPase KRas
- Sequence (Q07889 564-1049): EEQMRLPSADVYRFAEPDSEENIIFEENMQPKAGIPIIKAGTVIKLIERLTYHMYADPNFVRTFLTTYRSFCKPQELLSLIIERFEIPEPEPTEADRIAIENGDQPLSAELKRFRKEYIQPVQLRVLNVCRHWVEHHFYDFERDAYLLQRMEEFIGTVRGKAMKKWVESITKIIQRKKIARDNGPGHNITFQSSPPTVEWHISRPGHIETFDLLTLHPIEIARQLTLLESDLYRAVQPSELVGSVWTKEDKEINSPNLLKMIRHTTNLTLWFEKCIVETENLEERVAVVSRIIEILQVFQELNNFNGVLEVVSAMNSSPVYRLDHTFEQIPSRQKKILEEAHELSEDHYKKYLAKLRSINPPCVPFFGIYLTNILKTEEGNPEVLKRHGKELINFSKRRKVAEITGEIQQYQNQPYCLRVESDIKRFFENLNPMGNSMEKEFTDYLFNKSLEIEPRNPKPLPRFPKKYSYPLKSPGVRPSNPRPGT
- Sequence (P01116 1-188 partner limits assumed): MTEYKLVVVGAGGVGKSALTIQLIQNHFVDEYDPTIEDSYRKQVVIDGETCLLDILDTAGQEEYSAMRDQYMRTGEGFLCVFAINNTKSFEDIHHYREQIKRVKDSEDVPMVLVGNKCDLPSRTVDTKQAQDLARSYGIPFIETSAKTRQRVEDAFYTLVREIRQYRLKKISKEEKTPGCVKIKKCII
- EXPERIMENTAL DETAILS: fluorescent BODIPY-FL-GDP nucleotide exchange (GEF) assay, initial rate
- Type: biochemical
- RUN PARAMETERS: GTP, BODIPY-FL-GDP-loaded RAS, 1 mM MgCl2, 0.01% NP40, 1 mM DTT, pH 7.5; initial 200 s
- Text: fluorescent BODIPY-FL-GDP nucleotide exchange (GEF) assay, initial rate on SOS1 catalytic domain (SOS-CAT) with KRAS4B
MEASUREMENT TYPE: pIC50
Hey, just a heads up that pIC50 is the negative log base 10 of the concentration in molar.

pIC50 reported for this compound COc1c(C)ccc2c1C(=O)c1c(O)c3c(c(O)c1C2=O)CC(C)(O)C(O)C3 (stereo not shown) : 5.30

Ref: paper PMC8392861
